Tested on: S. enterica typhimurium tolC KO;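 also: active when median AUC fell below 0.1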
assayName: growth AUC normalised to DMSO control (median) (fraction of control); higher = less growth inhibition, active = hit call of the paper
conditionsUsed: 20 µM
Where a name gives a salt, the structure may show the parent alone.
metric: growth AUC normalised to DMSO control
# print the numeric value only

For record "CC(C)COC(=O)OCN1C(=O)CN(CCN2CC(=O)N(COC(=O)OCC(C)C)C(=O)C2)CC1=O" the listed growth AUC normalised to DMSO control is 1

For record Fc1ccc(C(c2ccc(F)cc2)N2CCN(C/C=C/c3ccccc3)CC2)cc1 [Flunarizine dihydrochloride] the listed growth AUC normalised to DMSO control is 0.987

For record "O=C(O)Cc1cc(I)c(Oc2ccc(O)c(I)c2)c(I)c1" the listed growth AUC normalised to DMSO control is 0.993

For record "Nc1nc(CC(=O)Nc2ccc(CCNC[C@H](O)c3ccccc3)cc2)cs1" the listed growth AUC normalised to DMSO control is 1

For record "c1ccc2[nH]c(-c3cscn3)nc2c1" the listed growth AUC normalised to DMSO control is 0.995

For record OCCN1CCN(CC/C=C2/c3ccccc3Sc3ccc(C(F)(F)F)cc32)CC1 [Flupentixol dihydrochloride cis-(Z)] the listed growth AUC normalised to DMSO control is 0.828

For record "O=C(Cn1ccnc1[N+](=O)[O-])NCCO" the listed growth AUC normalised to DMSO control is 1.02

For record "C[C@]12CC[C@H]3C(=CCc4cc(O)ccc43)[C@@H]1CCC2=O" the listed growth AUC normalised to DMSO control is 0.95

For record "N[C@@H](CSCCCO)C(=O)O" the listed growth AUC normalised to DMSO control is 1

For record CCN[C@@H]1C[C@H](N)[C@@H](O[C@H]2OC(CN)=CC[C@H]2N)[C@H](O)[C@H]1O[C@H]1OC[C@](C)(O)[C@H](NC)[C@H]1O [Netilmicin sulfate] the listed growth AUC normalised to DMSO control is 0.932

For record "O=C1NCN(c2ccccc2)C12CCN(CCCC(c1ccc(F)cc1)c1ccc(F)cc1)CC2" the listed growth AUC normalised to DMSO control is 0.988

For record "N=c1nc(N2CCCCC2)cc(N)n1O" the listed growth AUC normalised to DMSO control is 1.01

For record O=C(NCC1CCCCN1)c1cc(OCC(F)(F)F)ccc1OCC(F)(F)F (centres undefined) [Flecainide acetate] the listed growth AUC normalised to DMSO control is 1

For record "C/C(=C\C(=O)OCCCCCCCCC(=O)O)C[C@@H]1OC[C@H](C[C@@H]2O[C@H]2[C@@H](C)[C@H](C)O)[C@@H](O)[C@H]1O" the listed growth AUC normalised to DMSO control is 0.0105

For record NS(=O)(=O)c1cc2c(cc1Cl)NC(Cc1ccccc1)NS2(=O)=O (centres undefined) [Benzylhydrochlorothiazide] the listed growth AUC normalised to DMSO control is 0.994

For record "Cc1cc(NS(=O)(=O)c2ccc(N)cc2)nc(C)n1" the listed growth AUC normalised to DMSO control is 0.995

For record CC(=O)OC(C)C[N+](C)(C)C (centres undefined) [Methacholine chloride] the listed growth AUC normalised to DMSO control is 1

For record "CCOC(=O)[N-]c1c[n+](N2CCOCC2)no1" the listed growth AUC normalised to DMSO control is 1.01

For record CC(C)NC[C@@H](O)COc1ccc(CC(N)=O)cc1 [(R,+) Atenolol] the listed growth AUC normalised to DMSO control is 0.986

For record CC(C)NCC(O)c1ccc2ccccc2c1 (centres undefined) [Pronethalol hydrochloride] the listed growth AUC normalised to DMSO control is 0.989

For record COc1ccccc1N1CCN(CC(O)COc2cccc3ccccc23)CC1 (centres undefined) [Naftopidil dihydrochloride] the listed growth AUC normalised to DMSO control is 0.914

For record COc1cccc2c1C(=O)c1c(O)c3c(c(O)c1C2=O)C[C@@](O)(C(=O)CO)C[C@@H]3O[C@H]1C[C@H](N)[C@@H](O)[C@H](C)O1 [Epirubicin hydrochloride] the listed growth AUC normalised to DMSO control is 0.0212

For record Cc1ccccc1C(=O)Nc1ccc(C(=O)N2CCCC(O)c3cc(Cl)ccc32)c(C)c1 (centres undefined) the listed growth AUC normalised to DMSO control is 0.94

For record "CCCCOc1ccc(CC(=O)NO)cc1" the listed growth AUC normalised to DMSO control is 0.967
